B1: TPR 5TU (parent)
chain: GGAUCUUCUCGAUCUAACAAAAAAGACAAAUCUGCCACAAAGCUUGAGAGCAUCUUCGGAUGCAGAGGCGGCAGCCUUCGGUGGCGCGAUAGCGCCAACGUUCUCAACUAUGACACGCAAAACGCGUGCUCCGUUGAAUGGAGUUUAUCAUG

Variants of: B1
measurement-description: polymerase ribozyme fitness, log enrichment relative to wild type (log ratio); higher = more active; in vitro selection for triplet polymerase activity
This sample holds only a part of the variants without activity.
Reported polymerase ribozyme fitness (log ratio) values for the following variants.
A bare number is all that is needed in reply.

C63A G83A U145C A150U	-0.965
A37G A52G C69A U144G	-4.11
G46A U82C C95U C125G	-1.73
A120U U135C	-2.85
A47G G80A	-0.0419
G59C U127A	-3.77
A107C A142C	-4.05
A107C C116G	-3.74

INPUT: State, in one line, measured polymerase ribozyme fitness (log ratio) of G59C U109G
OUTPUT: -0.84

INPUT: State, in one line, measured polymerase ribozyme fitness (log ratio) of C51U C103A A121C
OUTPUT: -1
